Field: MIC values, Actinobacillus pleuropneumoniae CVCC262. Provide a value for each of the molecules that follow.
- System: Actinobacillus pleuropneumoniae CVCC262
- Test method notes: in vitro susceptibility, MIC by mini broth dilution
- Assay type: cell-based
- Measurement context: strain CVCC262
Answers are plain numbers, in ug/mi.

Some molecules with recorded MIC values, Actinobacillus pleuropneumoniae CVCC262:
Molecule | Assay value
CCCN1C[C@H](C)[C@@H](O)[C@](C)(O)[C@@H](CC)OC(=O)[C@H](C)[C@@H](O[C@H]2C[C@@](C)(OC)[C@](O)(CNCCCC(=O)O)[C@H](C)O2)[C@H](C)[C@@H](O[C@@H]2O[C@H](C)C[C@H](N(C)C)[C@H]2O)[C@](C)(O)C[C@H]1C [syzx-142] | 0.25
CCCN1C[C@H](C)[C@@H](O)[C@](C)(O)[C@@H](CC)OC(=O)[C@H](C)[C@@H](O[C@H]2C[C@@](C)(OC)[C@](O)(CNCCc3ccncc3)[C@H](C)O2)[C@H](C)[C@@H](O[C@@H]2O[C@H](C)C[C@H](N(C)C)[C@H]2O)[C@](C)(O)C[C@H]1C [syzx-191] | 0.5
CCCN1C[C@H](C)[C@@H](O)[C@](C)(O)[C@@H](CC)OC(=O)[C@H](C)[C@@H](O[C@H]2C[C@@](C)(OC)[C@](O)(CNc3ccc([N+](=O)[O-])cc3[N+](=O)[O-])[C@H](C)O2)[C@H](C)[C@@H](O[C@@H]2O[C@H](C)C[C@H](N(C)C)[C@H]2O)[C@](C)(O)C[C@H]1C [syzx-228] | 1
CCCC(C)NC[C@]1(O)[C@H](C)O[C@@H](O[C@H]2[C@H](C)[C@@H](O[C@@H]3O[C@H](C)C[C@H](N(C)C)[C@H]3O)[C@](C)(O)C[C@@H](C)N(CCC)C[C@H](C)[C@@H](O)[C@](C)(O)[C@@H](CC)OC(=O)[C@@H]2C)C[C@@]1(C)OC (some centres unmarked) [syzx-163] | 0.25
CCCN1CC(C)C(O)C(C)(O)C(CC)OC(=O)C(C)C(OC2CC(C)(OC)C(O)(CNCCOS(=O)(=O)O)C(C)O2)C(C)C(OC2OC(C)CC(N(C)C)C2O)C(C)(O)CC1C (centres unmarked) [syzx-153] | 0.25

Consider the following items and state reported MIC values, Actinobacillus pleuropneumoniae CVCC262 for each.
1. CC[C@H]1OC(=O)[C@H](C)[C@@H](O[C@H]2C[C@@](C)(OC)[C@](O)(CNCc3cccnc3)[C@H](C)O2)[C@H](C)[C@@H](O[C@@H]2O[C@H](C)C[C@H](N(C)C)[C@H]2O)[C@](C)(O)C[C@@H](C)NC[C@H](C)[C@@H](O)[C@]1(C)O [syzx-21]
2. CC[C@H]1OC(=O)[C@H](C)[C@@H](O[C@H]2C[C@@](C)(OC)[C@](O)(CNCC(O)c3ccccc3)[C@H](C)O2)[C@H](C)[C@@H](O[C@@H]2O[C@H](C)C[C@H](N(C)C)[C@H]2O)[C@](C)(O)C[C@@H](C)NC[C@H](C)[C@@H](O)[C@]1(C)O (some centres unmarked) [syzx-52]
3. CC[C@H]1OC(=O)[C@H](C)[C@@H](O[C@H]2C[C@@](C)(OC)[C@](O)(CNC(=O)C(F)(F)F)[C@H](C)O2)[C@H](C)[C@@H](O[C@@H]2O[C@H](C)C[C@H](N(C)C)[C@H]2O)[C@](C)(O)C[C@@H](C)NC[C@H](C)[C@@H](O)[C@]1(C)O [syzx-37]

[32, 32, 32]
